# reported inhibition; entries follow
target: Serine/threonine-protein kinase D3 (Homo sapiens); conditions: at 0.1 µM;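 also: each value is the mean of inhibition readings, from a kinase profiling panel run on the GSK PKIS inhibitor collection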
Assay Metric: inhibition (%)

INSERT INTO results (line_notation, assay_metric, unit_annotation, assay_value) VALUES
  ('CCOc1nccc2c1nc(-c1nonc1N)n2CC', 'inhibition', '%', 3.3),
  ('ON=C1CCc2cc(-c3nc(C4CCNCC4)[nH]c3-c3ccncc3)ccc21', 'inhibition', '%', 1.39),
  ('COc1cccc(-n2ncc3c(N/N=C/c4ccc(S(C)(=O)=O)cc4)ncnc32)c1', 'inhibition', '%', -6.98),
  ('Nc1nccc(C#Cc2cncnc2Nc2ccc(OCc3cccc(F)c3)c(Cl)c2)n1', 'inhibition', '%', 5.15),
  ('COc1cc(/C=N/Nc2ncnc3c2cnn3C(C)C)ccc1O', 'inhibition', '%', 1.37),
  ('Nc1ccc(C#Cc2cncnc2Nc2ccc(OCc3cccc(F)c3)c(Cl)c2)cc1', 'inhibition', '%', 2.59),
  ('COc1cc2ncnc(Nc3ccc4c(cnn4Cc4ccccc4)c3)c2cc1OC', 'inhibition', '%', 2.69),
  ('CC(C)c1ccc(Nc2nccc(-c3cnn4ncccc34)n2)cc1', 'inhibition', '%', 2.22),
  ('Cc1nc(-c2ccccc2)n2nc(NCCCN3CCOCC3)ncc12', 'inhibition', '%', 1.88),
  ('N#Cc1cccc(Nc2nccc(-c3cnn4ncccc34)n2)c1', 'inhibition', '%', 10.5),
  ('COc1ccc2ncnc(Nc3ccc(OCc4ccccc4)cc3)c2c1', 'inhibition', '%', 0.89),
  ('COC(=O)Nc1nc2cc(Oc3ccc(NC(=O)Nc4cccc(Br)c4)cc3)ccc2[nH]1', 'inhibition', '%', 2.07),
  ('C[C@@H](Oc1cc(-n2cnc3ccc(OC[C@@H](O)CO)cc32)sc1C(N)=O)c1ccccc1Cl', 'inhibition', '%', -1.65),
  ('Cc1ccc(NC(=O)CC2CC2)cc1-c1ccc(C(=O)NCC2CC2)cc1', 'inhibition', '%', 3.15),
  ('O=C1Nc2ccc(-c3cccnc3)cc2C1=Cc1cc(Br)c(O)c(Br)c1', 'inhibition', '%', 4.62),
  ('CCn1c(-c2nonc2N)nc2c(C#CC(C)(C)O)nc(OCCNC)cc21', 'inhibition', '%', 4.82),
  ('c1ccc(Nc2ncc(-c3ccccc3)o2)cc1', 'inhibition', '%', 4.57),
  ('Cc1ccc(C(=O)NC2CC2)cc1-c1ccc2[nH]ncc2c1', 'inhibition', '%', -3.35),
  ('OCc1ccc(-c2nc(-c3ccccn3)c(-c3ccc4c(c3)OCO4)[nH]2)cc1', 'inhibition', '%', 5.74),
  ('CC(C)c1ccc2c(c1)NC(=O)/C2=N/Nc1ccc(S(N)(=O)=O)cc1', 'inhibition', '%', -0.27),
  ('CCS(=O)(=O)c1ccc(OC)c(Nc2nccc(N(C)c3ccc4c(C)n[nH]c4c3)n2)c1', 'inhibition', '%', 4.79),
  ('CN(c1ccc(NC(=O)Nc2ccc(OC(F)(F)F)cc2)cc1)c1ccnc(Nc2cccc(S(N)(=O)=O)c2)n1', 'inhibition', '%', 3.1),
  ('NC(=O)c1cccc(Nc2nccc(Nc3cccc(F)c3)n2)c1', 'inhibition', '%', 0.7),
  ('O=S(=O)(CCOCc1ccc(-c2ccc3ncnc(Nc4ccc(OCc5cccc(F)c5)c(Cl)c4)c3c2)o1)c1ccccc1', 'inhibition', '%', 1.07),
  ('FC(F)(F)c1ccc(-c2nn3ncccc3c2-c2ccnc(Nc3ccc4c(c3)OCCO4)n2)cc1', 'inhibition', '%', -0.32),
  ('NS(=O)(=O)c1ccc(N/N=C2\C(=O)Nc3ccc(Cl)cc32)cc1', 'inhibition', '%', 3.58),
  ('C[C@@H](Oc1cc(-n2cnc3ccc(OCC4CCN(C)CC4)cc32)sc1C(N)=O)c1ccccc1C(F)(F)F', 'inhibition', '%', -0.13),
  ('NS(=O)(=O)c1ccc(-c2cc3ccncc3cc2OCc2ccccc2)cc1', 'inhibition', '%', 2.31),
  ('CCS(=O)(=O)c1ccc(OC)c(Nc2ncc(-c3cccc(OC)c3)o2)c1', 'inhibition', '%', 3.28),
  ('O=C(Nc1ccc(Oc2ccc3[nH]c(NC(=O)c4ccco4)nc3c2)cc1)Nc1cc(C(F)(F)F)ccc1F', 'inhibition', '%', -3.15),
  ('COC(=O)c1cncc(/C=C/c2c(C)cc(O)cc2C)c1', 'inhibition', '%', 4.31),
  ('Cc1ccc2c(-c3ccnc(Nc4cccc(C(F)(F)F)c4)n3)c(-c3ccccc3)nn2n1', 'inhibition', '%', 11.6),
  ('CCn1c(-c2nonc2N)nc2ccc(F)cc21', 'inhibition', '%', 6.8),
  ('Nc1nccc(-c2c(-c3ccc(F)cc3)ncn2CCCN2CCOCC2)n1', 'inhibition', '%', 4.8),
  ('CN(C)C(=O)O[C@@H]1CN[C@@H](C#Cc2cc3ncnc(Nc4ccc(OCc5cccc(F)c5)c(Cl)c4)c3s2)C1', 'inhibition', '%', 1.06),
  ('Oc1cccc(-c2nc(-c3ccccc3)[nH]c2-c2ccncc2)c1', 'inhibition', '%', 2.71);

* * *

target: Ephrin type-A receptor 2 (Homo sapiens); details: at 0.1 µM;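 also: reported values are mean percent inhibition of EPHA2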
Assay Metric: inhibition (%)

INSERT INTO results (line_notation, unit_annotation, assay_value) VALUES
  ('NS(=O)(=O)c1ccc(NC=C2C(=O)Nc3ccc4ncsc4c32)cc1', '%', 2.13),
  ('COc1ccc(-c2nn3ncccc3c2-c2ccnc(Nc3cccc(C(F)(F)F)c3)n2)cc1', '%', 0.1),
  ('C[C@@H](Oc1cc(-n2cnc3ccc(OC[C@@H](O)CO)cc32)sc1C(N)=O)c1ccccc1Cl', '%', -4.23),
  ('COc1cc(/C=N/Nc2ncnc3c2cnn3C(C)C)ccc1O', '%', 1.56),
  ('COc1cccc(-n2ncc3c(N/N=C/c4ccc(S(C)(=O)=O)cc4)ncnc32)c1', '%', -3.2);

* * *

# reported inhibition; entries follow
Molecular target: Mitogen-activated protein kinase 13 (Homo sapiens) (UniProt O15264);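 also: reported value is the mean percent inhibition of p38delta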
Sequence (whole entry): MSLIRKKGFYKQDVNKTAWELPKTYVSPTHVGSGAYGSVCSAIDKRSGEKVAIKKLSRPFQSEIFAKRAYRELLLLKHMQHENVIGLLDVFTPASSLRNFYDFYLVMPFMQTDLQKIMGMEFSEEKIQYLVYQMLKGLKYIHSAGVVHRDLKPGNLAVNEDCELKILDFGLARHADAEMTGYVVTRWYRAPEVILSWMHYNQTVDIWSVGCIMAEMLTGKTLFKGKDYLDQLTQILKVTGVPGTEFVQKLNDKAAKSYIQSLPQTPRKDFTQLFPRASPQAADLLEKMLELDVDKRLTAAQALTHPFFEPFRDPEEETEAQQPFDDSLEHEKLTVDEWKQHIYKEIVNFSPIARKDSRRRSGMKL
Details: at 0.1 µM
Assay Metric: inhibition (%)

INSERT INTO assay_data (line_notation, assay_metric, assay_value) VALUES
  ('Cc1ccc(O)cc1Nc1ccnc2ccc(S(C)(=O)=O)cc12', 'inhibition', 2.61),
  ('NS(=O)(=O)c1cccc(Nc2cc(-c3ccc(F)cc3)n[nH]2)c1', 'inhibition', 2.2),
  ('CCn1c(-c2nonc2N)nc2c(C#CC(C)(C)O)nc(OCCNC)cc21', 'inhibition', 4.59),
  ('N#Cc1cccc(Nc2nccc(-c3cnn4ncccc34)n2)c1', 'inhibition', 12.9),
  ('Cc1ccc(NC(=O)CC2CC2)cc1-c1ccc(C(=O)NCC2CC2)cc1', 'inhibition', 3.22),
  ('Nc1ccc(C#Cc2cncnc2Nc2ccc(OCc3cccc(F)c3)c(Cl)c2)cc1', 'inhibition', 2.44),
  ('Nc1nccc(-c2c(-c3ccc(F)cc3)ncn2CCCN2CCOCC2)n1', 'inhibition', 2.28),
  ('O=C1Nc2ccccc2/C1=C/Nc1ccc2[nH]c(=O)[nH]c2c1', 'inhibition', 3.8),
  ('CCn1c(-c2nonc2N)nc2ccc(F)cc21', 'inhibition', 2.3),
  ('Cc1cc(Cl)cc2c1NC(=O)C2=NNc1ccc(S(N)(=O)=O)cc1', 'inhibition', -1.04),
  ('CN(C)C(=O)O[C@H]1CN[C@H](C#Cc2cc3ncnc(Nc4ccc(OCc5cccc(F)c5)c(Cl)c4)c3s2)C1', 'inhibition', -0.2),
  ('COC(=O)c1cncc(/C=C/c2c(C)cc(O)cc2C)c1', 'inhibition', 1.59),
  ('COc1cc2ncnc(Nc3ccc4c(cnn4Cc4ccccc4)c3)c2cc1OC', 'inhibition', 3.21),
  ('NS(=O)(=O)c1ccc(Nc2cc(-c3cccc(O)c3)n[nH]2)cc1', 'inhibition', 2.03),
  ('Cc1ccc2c(-c3ccnc(Nc4cccc(C(F)(F)F)c4)n3)c(-c3ccccc3)nn2n1', 'inhibition', 4.66),
  ('c1ccc(Cc2nc3ccc(Nc4ncnc5ccccc45)cc3[nH]2)cc1', 'inhibition', 4.91),
  ('COc1cccc(-n2ncc3c(N/N=C/c4ccc(S(C)(=O)=O)cc4)ncnc32)c1', 'inhibition', 1.44),
  ('CS(=O)(=O)CCNCc1nc(-c2ccc3ncnc(Nc4ccc(OCc5cccc(C(F)(F)F)c5)cc4)c3c2)cs1', 'inhibition', 1.27),
  ('COc1cc2ncn(-c3cc(OCc4ccccc4S(C)(=O)=O)c(C#N)s3)c2cc1OC', 'inhibition', 1.05),
  ('COc1ccc(-c2nn3ncccc3c2-c2ccnc(Nc3cccc(C(F)(F)F)c3)n2)cc1', 'inhibition', 2.68),
  ('N#Cc1c(NC(=O)c2ccccc2F)sc2c1CCCC2', 'inhibition', -1.92);
